Where do these numbers come from? They come from paper PMC10424441.

Test: Oral pharmacokinetics study
Conditions: BALB/c, mouse, in vivo, po, 50 mg/kg
measurement.name: AUC(0-inf)

smiles.entry: COc1cc(C=CC(=O)CC(=O)C=Cc2ccc(O)c(OC)c2)ccc1O
measurement.name: AUC(0-inf)
test.result: 170 ng·h/mL

* * *

Assay: Oral pharmacokinetics study
Details: BALB/c, mouse, in vivo, po, 50 mg/kg

smiles.entry: COc1cc(C=CC(=O)CC(=O)C=Cc2ccc(O)c(OC)c2)ccc1O
k el [s⁻¹]: 5.28e-05

* * *

Experiment: Oral pharmacokinetics study
Details: BALB/c, mouse, in vivo, po, 50 mg/kg

smiles.entry: COc1cc(C=CC(=O)CC(=O)C=Cc2ccc(O)c(OC)c2)ccc1O
half-life / h: 3.66

* * *

Experiment: Oral pharmacokinetics study
Settings: BALB/c, mouse, in vivo, po, 50 mg/kg

smiles.entry: COc1cc(C=CC(=O)CC(=O)C=Cc2ccc(O)c(OC)c2)ccc1O
units.of.measure: h
MRT inf: 5.07

* * *

Assay: Oral pharmacokinetics study
Conditions: BALB/c, mouse, in vivo, po, 50 mg/kg

compound: COc1cc(C=CC(=O)CC(=O)C=Cc2ccc(O)c(OC)c2)ccc1O [CMN]
AUC(0-t) (ng·h/mL): 119

* * *

Assay: Oral pharmacokinetics study
Details: BALB/c, mouse, in vivo, po, 50 mg/kg
measurement.name: Tmax (min)

smiles.entry: COc1cc(C=CC(=O)CC(=O)C=Cc2ccc(O)c(OC)c2)ccc1O
test.result: 15
